The binders listed here are annotated with their kon.
molecular target: T1, Human serum albumin (human, UniProt P02768 25-609); test: SPR (Biacore), antibody captured on the chip, HSA as analyte, 25 C, 1:1 model
T1 construct: Bought purified protein, injected as the analyte in SPR; also called HSA; Human albumin, ChromPure (Jackson ImmunoResearch)
Express the result in M⁻¹ s⁻¹ but write the number alone.

Qu. Give the reported value of kon for this record: 645gL4gH5 Fab-A26 BYbe wt (bispecific antibody, part only; not given: A26 dsscFv, linker, CH1, CL, V domains shown, not shown: another chain or arm of the molecule; a dimerising Fc or GST; small tags and cut ends) VH: EVQLLESGGGLVQPGGSLRLSCAVSGIDLSNYAINWVRQAPGKQLEWIGIIWASGTTFYATWAKGRFTISRDNSKNTVYLQMNSLRAEDTAVYYCARTVPGYSTAPYFDLWGQGTLVTVSS VL: DIQMTQSPSSVSASVGDRVTITCQSSPSVWSNFLSWYQQKPGKAPKLLIYEASKLTSGVPSRFSGSGSGTDFTLTISSLQPEDFATYYCGGGYSSISDTTFGGGTKVEIK
Ans. 156000

Qu. Give the reported value of kon for this record: 645CDR-497FW Fab nh (Fab, V domains shown, also called 497FW/645CDR Fab nh; 645CDR -497FW/645CDR Fab nh) VH: EVQLVESGGGLVKPGGSLRLSCAASGIDLSNYAINWVRQAPGKGLEWVGIIWASGTTFYATWAKGRFTISRDDSKNTLYLQMNSLKTEDTAVYYCTTTVPGYSTAPYFDLWGQGTLVTVSS VL: AIQLTQSPSSLSASVGDRVTITCQSSPSVWSNFLSWYQQKPGKAPKLLIYEASKLTSGVPSRFSGSGSGTDFTLTISSLQPEDFATYYCGGGYSSISDTTFGQGTKVEIK
Ans. 130000

Qu. Give the reported value of kon for this record: 645CDR-2109FW Fab nh (Fab, V domains shown, also called 2109FW/645CDR Fab nh; #3) VH: EVQLVESGGGLVKPGGSLRLSCAASGIDLSNYAINWVRQAPGKGLEWIGIIWASGTTFYATWAKGRFTISVDKAKNSAYLQMNSLRAEDTAVYYCTRTVPGYSTAPYFDLWGQGTLVTVSS VL: DIQMTQSPSSLSASVGDRVTITCQSSPSVWSNFLSWYQQKPGKVPKLLIYEASKLTSGVPSRFSGTGSGTDYTLTISSLQPEDVATYFCGGGYSSISDTTFGQGTKLEIK
Ans. 150000

Qu. Give the reported value of kon for this record: 645CDR-2109FW Fab-A26 ds HL BYbe (bispecific antibody, part only; not given: A26 dsscFv, linker, CH1, CL, V domains shown, not shown: another chain or arm of the molecule; a dimerising Fc or GST; small tags and cut ends) VH: EVQLVESGGGLVKPGGSLRLSCAASGIDLSNYAINWVRQAPGKGLEWIGIIWASGTTFYATWAKGRFTISVDKAKNSAYLQMNSLRAEDTAVYYCTRTVPGYSTAPYFDLWGQGTLVTVSS VL: DIQMTQSPSSLSASVGDRVTITCQSSPSVWSNFLSWYQQKPGKVPKLLIYEASKLTSGVPSRFSGTGSGTDYTLTISSLQPEDVATYFCGGGYSSISDTTFGQGTKLEIK
Ans. 137000

Qu. Give the reported value of kon for this record: 645CDR-497FW Fab-A26 ds HL BYbe (bispecific antibody, part only; not given: A26 dsscFv, linker, CH1, CL, V domains shown, not shown: another chain or arm of the molecule; a dimerising Fc or GST; small tags and cut ends) VH: EVQLVESGGGLVKPGGSLRLSCAASGIDLSNYAINWVRQAPGKGLEWVGIIWASGTTFYATWAKGRFTISRDDSKNTLYLQMNSLKTEDTAVYYCTTTVPGYSTAPYFDLWGQGTLVTVSS VL: AIQLTQSPSSLSASVGDRVTITCQSSPSVWSNFLSWYQQKPGKAPKLLIYEASKLTSGVPSRFSGSGSGTDFTLTISSLQPEDFATYYCGGGYSSISDTTFGQGTKVEIK
Ans. 151000
